- Experimental system: KRAS WT (Homo sapiens (Human), UniProt P01116+P62937)
- Sequence (P01116 other isoform, or with tags, fused parts or gaps): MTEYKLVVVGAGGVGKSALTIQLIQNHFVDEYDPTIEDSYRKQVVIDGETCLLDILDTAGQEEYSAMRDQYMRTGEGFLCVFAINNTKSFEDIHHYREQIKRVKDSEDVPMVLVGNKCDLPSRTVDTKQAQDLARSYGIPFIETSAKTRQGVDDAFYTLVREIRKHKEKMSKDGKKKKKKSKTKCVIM
- Sequence (P62937 whole entry): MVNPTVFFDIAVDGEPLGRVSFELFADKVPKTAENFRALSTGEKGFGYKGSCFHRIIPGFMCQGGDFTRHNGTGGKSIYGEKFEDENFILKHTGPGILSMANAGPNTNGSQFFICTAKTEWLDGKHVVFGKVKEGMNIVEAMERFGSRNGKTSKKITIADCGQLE
- Assay: Ras-Raf disruption/FRET/MOA assay (BRAF RBD, Cyclophilin A)
- Type: biochemical
- Reported conditions: read-out: KRAS WT FRET data IC50
pIC50: −log10 of the molar value.
Test readout: pIC50

[
  {
    "Molecule": "CCn1c(-c2ccccc2[C@H](C)OC)c2c3cc(ccc31)-c1csc(n1)C[C@H](NC(=O)[C@H](C(C)C)N(C)C(=O)[C@H]1CCN(C(=O)OC3COC3)C1)C(=O)N1CCC[C@H](N1)C(=O)OCC(C)(C)C2",
    "Experimental system": "KRAS WT (Homo sapiens (Human), UniProt P01116+P62937)",
    "pIC50": "5.00 to 6.00"
  },
  {
    "Molecule": "CCn1c(-c2cccnc2[C@H](C)OC)c2c3cc(ccc31)-c1csc(n1)C[C@H](NC(=O)[C@H](C(C)C)N(C)C(=O)N1CC[C@@H]1C)C(=O)N1CCC[C@H](N1)C(=O)OCC(C)(C)C2",
    "Experimental system": "KRAS WT (Homo sapiens (Human), UniProt P01116+P62937)",
    "pIC50": "6.00 to 7.00"
  },
  {
    "Molecule": "CCn1c(-c2cccnc2[C@H](C)OC)c2c3cc(ccc31)-c1cc(O)cc(c1)C[C@H](NC(=O)[C@H](C(C)C)N(C)C(=O)C1(C(=O)O)CC1)C(=O)N1CCC[C@H](N1)C(=O)OCC(C)(C)C2",
    "Experimental system": "KRAS WT (Homo sapiens (Human), UniProt P01116+P62937)",
    "pIC50": "5.00 to 6.00"
  }
]

Given CCn1c(-c2cccnc2[C@H](C)OC)c2c3cc(ccc31)-c1csc(n1)C[C@H](NC(=O)[C@H](C(C)C)N(C)C(=O)N1CC(N(C)C(C)C)C1)C(=O)N1CCC[C@H](N1)C(=O)OCC(C)(C)C2 , state its recorded pIC50.
6.00 to 7.00

What value of pIC50 has been recorded for this entry: CCn1c(-c2cccnc2[C@H](C)OC)c2c3cc(ccc31)-c1cccc(c1)C[C@H](NC(=O)[C@H](C(C)C)N(C)C(C)=O)C(=O)N1CCC[C@H](N1)C(=O)OCC(C)(C)C2
5.00 to 6.00

Any idea what its pIC50 is? The molecule is CCn1c(-c2cccnc2[C@H](C)OC)c2c3cc(ccc31)-c1csc(n1)C[C@H](NC(=O)[C@H](C(C)C)N(C)C(=O)N1CCC1C(=O)O)C(=O)N1CCC[C@H](N1)C(=O)OCC(C)(C)C2 (stereo partly drawn)
5.00 to 6.00

Fill blank: measured pIC50 of the molecule CCn1c(-c2cccnc2[C@H](C)OC)c2c3cc(ccc31)-c1csc(n1)C[C@H](NC(=O)[C@H](C(C)C)N(C)C(=O)N1CCC[C@@H]1CN(C)C)C(=O)N1CCC[C@H](N1)C(=O)OCC(C)(C)C2 is ____.
6.00 to 7.00

Given the entry CCn1c(-c2cccnc2[C@H](C)OC)c2c3cc(ccc31)-c1csc(n1)C[C@H](NC(=O)[C@H](C(C)C)N(C)C(=O)[C@@H]1[C@@H]3CN(C)C[C@@H]31)C(=O)N1CCC[C@H](N1)C(=O)OCC(C)(C)C2 , report its measured pIC50.
6.00 to 7.00

What does the record list as pIC50 for CCn1c(-c2cccnc2[C@H](C)OC)c2c3cc(ccc31)-c1csc(n1)C[C@H](NC(=O)[C@H](C(C)C)N(C)C(=O)N1CC(C(C)(C)O)C1)C(=O)N1CCC[C@H](N1)C(=O)OCC(C)(C)C2 ?
6.00 to 7.00
